- test_description: Cytotoxicity against COX-2 positive human HCA-7 cells transfected with CD44v6shRNA assessed as growth inhibition after 48 hrs by MTT assay
- Assay type: functional, cell-based
- reported_conditions: HCA-7, 48 h
For each record, write down the corresponding pIC50.
Answers are plain numbers, as −log10 of the molar value.

List reported pIC50 for each of these compounds:
1. CC(C)(C)c1cc(/C=N/NC(=O)c2cccnc2)c(O)c(C(C)(C)C)c1
2. CC(C)(C)c1cc(/C=N/NC(=O)c2ccncc2)c(O)c(C(C)(C)C)c1
3. CC(C)(C)c1cc(/C=N/NC(=O)c2ccccc2O)c(O)c(C(C)(C)C)c1
4. Cc1ccc(-c2cc(C(F)(F)F)nn2-c2ccc(S(N)(=O)=O)cc2)cc1
5. CC(C)(C)c1cc(/C=N/NC(=O)c2ccccc2)c(O)c(C(C)(C)C)c1
6. CC1(C)Cc2c(-c3ccccc3)c(-c3ccc(Cl)cc3)c(CC(=O)O)n2C1

Output line:
[6.59, 6.12, 7.11, 6.12, 6.25, 4.73]

---

- Tested on: HT-29
- test_description: Cytotoxicity against COX-2 positive human HT-29 cells assessed as growth inhibition by CellTiter-96 AQueous assay
- Format: functional, cell-based
measured_property: pIC50
Answers are plain numbers, as −log10 of the molar value.

For orientation, consider the following solved cases.
Input line: Identify measured pIC50 associated with "CC(C)(C)c1cc(/C=N/NC(=O)c2ccccc2)c(O)c(C(C)(C)C)c1"
Output line: 5.24

Input line: Identify measured pIC50 associated with "CC(C)(C)c1cc(/C=N/NC(=O)c2ccccc2O)c(O)c(C(C)(C)C)c1"
Output line: 5.74

Input line: Identify measured pIC50 associated with "CC(C)(C)c1cc(/C=N/NC(=O)c2ccncc2)c(O)c(C(C)(C)C)c1"
Output line: 5.24

List reported pIC50 for each of these molecules:
1. CC1(C)Cc2c(-c3ccccc3)c(-c3ccc(Cl)cc3)c(CC(=O)O)n2C1
2. Cc1ccc(-c2cc(C(F)(F)F)nn2-c2ccc(S(N)(=O)=O)cc2)cc1
3. CC(C)(C)c1cc(/C=N/NC(=O)c2cccnc2)c(O)c(C(C)(C)C)c1

Output line:
1: 4.17; 2: 5.24; 3: 5.37

---

For each record, write down the corresponding pIC50.
- test_target: Prostaglandin G/H synthase 2 (Homo sapiens, UniProt P35354)
- Sequence (P35354 whole entry): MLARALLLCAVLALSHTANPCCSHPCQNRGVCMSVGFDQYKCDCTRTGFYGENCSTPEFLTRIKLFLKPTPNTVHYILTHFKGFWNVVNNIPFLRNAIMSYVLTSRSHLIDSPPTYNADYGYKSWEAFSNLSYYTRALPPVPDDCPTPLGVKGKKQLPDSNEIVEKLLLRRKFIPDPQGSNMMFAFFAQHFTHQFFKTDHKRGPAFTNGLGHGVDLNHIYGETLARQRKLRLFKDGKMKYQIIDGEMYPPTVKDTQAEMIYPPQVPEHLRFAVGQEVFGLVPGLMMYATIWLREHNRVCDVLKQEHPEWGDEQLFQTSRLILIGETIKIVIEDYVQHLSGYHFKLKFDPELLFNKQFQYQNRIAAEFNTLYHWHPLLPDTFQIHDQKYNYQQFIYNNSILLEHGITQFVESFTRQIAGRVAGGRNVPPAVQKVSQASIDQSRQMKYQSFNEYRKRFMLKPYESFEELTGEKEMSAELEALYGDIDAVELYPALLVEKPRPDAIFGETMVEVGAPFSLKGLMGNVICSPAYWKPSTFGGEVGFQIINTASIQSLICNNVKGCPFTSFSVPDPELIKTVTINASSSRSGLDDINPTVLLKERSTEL
Answers are plain numbers, as −log10 of the molar value.

List reported pIC50 for each of these molecules:
1. CC(C)(C)c1cc(/C=N/NC(=O)c2ccncc2)c(O)c(C(C)(C)C)c1
2. CC(C)(C)c1cc(/C=N/NC(=O)c2ccccc2O)c(O)c(C(C)(C)C)c1

Output line:
1: 5.15; 2: 5.29
